Biological target: T1, recombinant human sclerostin (human, UniProt Q9BQB4 24-213)
T1 construct: biotinylated in the ELISAs; also called hu sclerostin; hu scl
T1 sequence: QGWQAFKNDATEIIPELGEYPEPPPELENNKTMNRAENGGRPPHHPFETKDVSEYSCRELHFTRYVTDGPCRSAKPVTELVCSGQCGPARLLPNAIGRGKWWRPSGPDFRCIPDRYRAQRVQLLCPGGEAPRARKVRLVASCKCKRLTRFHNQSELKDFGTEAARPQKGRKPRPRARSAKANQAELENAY
Assay: SPR

{"columns": ["Binder", "koff (s⁻¹)"],
 "data": [
  ["AE10-6-AM7 (antibody, V domains shown, converted into IgG; also called rHC + LC S4 clone 131) VH: EVQLVQSGAEVKKPGASVKVSCKVSGYTLTELSMHWVRQAPGKGLEWMGGFDPEDGETIYAQKFQGRVTMTEDTSTDTAYMELSSLRSEDTAVYYCATDTVGYWEKFFQHWGQGTLVTVSS VL: QAVVTQEPSLTVSPGGTVTLTCGSSTGTVTIDHYPYWFQQKPGQAPRTLISDTDDKHSWTPARFSGSLLGGKAALTLSGAQPEDEAEYYCLLDYGGRFVFGGGTKLTVL", "2.1e-06"],
  ["AE10-6-AM3 (antibody, V domains shown, converted into IgG) VH: EVQLVQSGAEVKKPGASVKVSCKVSGYTLTELSMHWVRQAPGKGLEWMGGFDPEDGETIYAQKFQGRVTMTEDTSTDTAYMELSSLRSEDTAVYYCATDSAGYWYKFFQHWGQGTLVTVSS VL: QAVVTQEPSLTVSPGGTVTLTCGSSTGAVTIDHYPYWFQQKPGQAPRTLISDTDDKHSWTPARFSGSLLGGKAALTLSGAQPEDEAEYYCLLDYGGTFVFGGGTKLTVL", "3.8e-06"],
  ["AE10-6-AM5 (antibody, V domains shown, converted into IgG) VH: EVQLVQSGAEVKKPGASVKVSCKVSGYTLSELSMHWVRQAPGKGLEWMGGFDPEGGETIYAQKFQGRVTMTEDTSTDTAYMELSSLRSEDTAVYYCATDAGGYWYKFFQHWGQGTLVTVSS VL: QAVVTQEPSLTVSPGGTVTLTCGSSTGTVTIDHYPYWFQQKPGQAPRTLISDTDDKHSWTPARFSGSLLGGKAALTLSGAQPEDEAEYYCLLFYGGTVVFGGGTKLTVL", "1.3e-05"],
  ["AE10-6-AM8 (antibody, V domains shown, converted into IgG) VH: EVQLVQSGAEVKKPGASVKVSCKVSGYTLSELSIHWVRQAPGKGLEWMGGFDPEDGETIYAQKFQGRVTMTEDTSTDTAYMELSSLRSEDTAVYYCATDSAGYWYKFFQHWGQGTLVTVSS VL: QAVVTQEPSLTVSPGGTVTLTCGSSTGAVTIDHYPYWFQQKPGQAPRTLISDTDDKHSWTPARFSGSLLGGKAALTLSGAQPEDEAEYYCLLDYGGSFVFGGGTKLTVL", "9.7e-06"],
  ["AE10-6-AM6 (antibody, V domains shown, converted into IgG; also called rHC + LC S4 clone 119) VH: EVQLVQSGAEVKKPGASVKVSCKVSGYTLSELSMHWVRQAPGKGLEWMGGFDPEGGETIYAQKFQGRVTMTEDTSTDTAYMELSSLRSEDTAVYYCATDTEGYWEKFFQHWGQGTLVTVSS VL: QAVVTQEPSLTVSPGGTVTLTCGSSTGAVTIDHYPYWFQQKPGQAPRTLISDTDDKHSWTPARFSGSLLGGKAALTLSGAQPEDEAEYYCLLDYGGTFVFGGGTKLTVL", "1.2e-05"],
  ["AE10-6-AM2 (antibody, V domains shown, converted into IgG; also called rHC + LC S4 clone 102) VH: EVQLVQSGAEVKKPGASVKVSCKVSGYTLTELSMHWVRQAPGKGLEWMGGFDPEAGETIYAQKFQGRVTMTEDTSTDTAYMELSSLRSEDTAVYYCATDGELYWYKFFQHWGQGTLVTVSS VL: QAVVTQEPSLTVSPGGTVTLTCGSSTGAVTIWHYPYWFQQKPGQAPRTLISDTNDKHSWTPARFSGSLLGGKAALTLSGAQPEDEAEYYCLLDYGGSFVFGGGTKLTVL", "2.7e-05"]
]}
